target: GST-ALK5 (Homo sapiens, UniProt P36897); assay: In-vitro (enzyme) kinase assay, 384-well flashplate (Example 36); format: biochemical; conditions: GST-ALK5, GST-SMAD2 substrate, 3 mM ATP, 30° C., 45 min; read-out: TβR activity (Example 36)
Sequence (P36897 34-503): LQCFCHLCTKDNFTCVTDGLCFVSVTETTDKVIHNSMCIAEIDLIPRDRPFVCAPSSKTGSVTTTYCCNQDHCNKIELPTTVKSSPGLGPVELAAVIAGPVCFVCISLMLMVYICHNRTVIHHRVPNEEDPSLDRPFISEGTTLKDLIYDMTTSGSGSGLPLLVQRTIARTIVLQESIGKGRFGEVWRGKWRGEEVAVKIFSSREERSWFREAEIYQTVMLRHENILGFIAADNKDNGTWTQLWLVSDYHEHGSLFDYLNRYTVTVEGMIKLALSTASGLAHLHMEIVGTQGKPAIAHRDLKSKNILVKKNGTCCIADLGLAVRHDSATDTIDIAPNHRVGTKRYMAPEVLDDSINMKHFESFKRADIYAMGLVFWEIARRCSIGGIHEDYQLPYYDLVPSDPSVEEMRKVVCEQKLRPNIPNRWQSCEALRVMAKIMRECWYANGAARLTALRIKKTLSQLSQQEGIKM
pIC50: −log10 of the molar value.
measuredAttribute: pIC50

Consider the worked cases shown below.
                             compoundsmiles     testvalue
0  Fc1ccc(Cl)cc1-c1cc(-c2cnccc2-c2ccccc2)c2cccnc2n1  5.00 to 6.00
1  CN1CCN(c2ccc(-c3cncc(-c4cc(-c5cc(Cl)ccc5F)nc5ncccc45)c3)cc2)CC1        > 7.00
2  OCCn1cc(-c2cncc(-c3cc(-c4ccccc4F)nc4ncccc34)n2)cn1        > 7.00

Name the reported pIC50 value associated with the molecule Cn1cc(-c2cncc(-c3cc(-c4cc(F)c(F)cc4F)nc4ncccc34)c2)cn1
6.00 to 7.00
